FYI, the data here is from paper PMC4445146.

# measured.target: Mcl-1/Bim (Homo sapiens)
# Sequence (Q07820 whole entry): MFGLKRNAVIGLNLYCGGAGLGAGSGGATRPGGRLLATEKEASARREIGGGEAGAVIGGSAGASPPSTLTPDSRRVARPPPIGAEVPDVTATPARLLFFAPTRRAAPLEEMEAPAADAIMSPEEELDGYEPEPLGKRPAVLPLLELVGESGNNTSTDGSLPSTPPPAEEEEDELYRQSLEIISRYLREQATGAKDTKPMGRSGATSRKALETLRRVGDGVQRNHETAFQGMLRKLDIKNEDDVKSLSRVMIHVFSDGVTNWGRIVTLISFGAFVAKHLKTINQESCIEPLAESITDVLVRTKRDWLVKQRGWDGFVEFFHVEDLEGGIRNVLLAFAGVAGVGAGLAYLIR
# measurement.protocol: ELISA, disruption of Mcl-1/Bim binding
# measurement.conditions: read-out: Mcl-1/Bim IC50; ELISA; average ± SEM, n ≥ 3
pIC50: −log10 of the molar value.
Assign Met to entries whose pIC50 meets or exceeds 5; assign Not met to the rest.

O=C(O)Cn1cc(-c2cc(O)c(C(=O)c3[nH]c(Cl)c(Cl)c3-n3c(C(=O)c4cc(Cl)c(-c5cn(CC(=O)O)nn5)cc4O)cc(Cl)c3Cl)cc2Cl)nn1
Met

Query: Is the recorded value of pIC50 equal to or greater than 5 for this molecule? "Cc1cc(O)c(C(=O)c2[nH]c(Cl)c(Cl)c2-n2c(C(=O)c3cc(Cl)c(C)cc3O)cc(Cl)c2Cl)cc1Cl"
Reply: Met

Query: Entry "CCc1ccc(C(=O)c2[nH]c(Cl)c(Cl)c2-n2c(C(=O)c3ccc(CC)cc3O)cc(Cl)c2Cl)c(O)c1" please
Reply: Met

Query: Can you check "O=C(O)Cn1cc(-c2ccc(C(=O)c3[nH]c(Cl)c(Cl)c3-n3c(C(=O)c4ccc(-c5cn(CC(=O)O)nn5)cc4O)cc(Cl)c3Cl)c(O)c2)nn1" next?
Reply: Not met

Query: Try this molecule too: "C#Cc1ccc(C(=O)c2[nH]c(Cl)c(Cl)c2-n2c(C(=O)c3ccc(C#C)cc3O)cc(Cl)c2Cl)c(O)c1"
Reply: Met

Query: Same lookup for "CCOC(=O)Cn1cc(-c2ccc(C(=O)c3[nH]c(Cl)c(Cl)c3-n3c(C(=O)c4ccc(-c5cn(CC(=O)OCC)nn5)cc4O)cc(Cl)c3Cl)c(O)c2)nn1" , please.
Reply: Not met

----------
# measured.target: Bcl-xL/Bim (Homo sapiens, UniProt Q07817)
# Sequence (Q07817 whole entry): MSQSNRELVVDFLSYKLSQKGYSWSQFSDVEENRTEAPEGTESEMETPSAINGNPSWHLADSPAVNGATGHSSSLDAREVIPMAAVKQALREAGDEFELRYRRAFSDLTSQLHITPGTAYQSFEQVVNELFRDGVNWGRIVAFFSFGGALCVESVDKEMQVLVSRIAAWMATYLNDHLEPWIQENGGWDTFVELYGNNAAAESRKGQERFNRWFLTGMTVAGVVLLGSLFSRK
# measurement.protocol: ELISA, disruption of Bcl-xL/Bim binding
# measurement.conditions: read-out: Bcl-xL/Bim IC50; ELISA; average ± SEM, n ≥ 3
quantity: IC50 (µM)
// return numeric value only (unit: µM, not printed)

Cc1cc(O)c(C(=O)c2[nH]c(Cl)c(Cl)c2-n2c(C(=O)c3cc(Cl)c(C)cc3O)cc(Cl)c2Cl)cc1Cl [compound 24]
2.5
CCc1ccc(C(=O)c2[nH]c(Cl)c(Cl)c2-n2c(C(=O)c3ccc(CC)cc3O)cc(Cl)c2Cl)c(O)c1 [compound 27]
3.9

Let's switch to this compound now.
Query: What does the record list as IC50 for C#Cc1ccc(C(=O)c2[nH]c(Cl)c(Cl)c2-n2c(C(=O)c3ccc(C#C)cc3O)cc(Cl)c2Cl)c(O)c1 [compound 25] ?
Reply: 5.6
